Values compiled from patent US20240336612A1.

- experimental-target: SMARCA2 (Homo sapiens)
- Construct: SMARCA2-HiBiT knock-in Hela monoclonal cell (CS302366); host or cells: HeLa (HiBiT knock-in monoclonal line)
- Sequence (P51531 whole entry): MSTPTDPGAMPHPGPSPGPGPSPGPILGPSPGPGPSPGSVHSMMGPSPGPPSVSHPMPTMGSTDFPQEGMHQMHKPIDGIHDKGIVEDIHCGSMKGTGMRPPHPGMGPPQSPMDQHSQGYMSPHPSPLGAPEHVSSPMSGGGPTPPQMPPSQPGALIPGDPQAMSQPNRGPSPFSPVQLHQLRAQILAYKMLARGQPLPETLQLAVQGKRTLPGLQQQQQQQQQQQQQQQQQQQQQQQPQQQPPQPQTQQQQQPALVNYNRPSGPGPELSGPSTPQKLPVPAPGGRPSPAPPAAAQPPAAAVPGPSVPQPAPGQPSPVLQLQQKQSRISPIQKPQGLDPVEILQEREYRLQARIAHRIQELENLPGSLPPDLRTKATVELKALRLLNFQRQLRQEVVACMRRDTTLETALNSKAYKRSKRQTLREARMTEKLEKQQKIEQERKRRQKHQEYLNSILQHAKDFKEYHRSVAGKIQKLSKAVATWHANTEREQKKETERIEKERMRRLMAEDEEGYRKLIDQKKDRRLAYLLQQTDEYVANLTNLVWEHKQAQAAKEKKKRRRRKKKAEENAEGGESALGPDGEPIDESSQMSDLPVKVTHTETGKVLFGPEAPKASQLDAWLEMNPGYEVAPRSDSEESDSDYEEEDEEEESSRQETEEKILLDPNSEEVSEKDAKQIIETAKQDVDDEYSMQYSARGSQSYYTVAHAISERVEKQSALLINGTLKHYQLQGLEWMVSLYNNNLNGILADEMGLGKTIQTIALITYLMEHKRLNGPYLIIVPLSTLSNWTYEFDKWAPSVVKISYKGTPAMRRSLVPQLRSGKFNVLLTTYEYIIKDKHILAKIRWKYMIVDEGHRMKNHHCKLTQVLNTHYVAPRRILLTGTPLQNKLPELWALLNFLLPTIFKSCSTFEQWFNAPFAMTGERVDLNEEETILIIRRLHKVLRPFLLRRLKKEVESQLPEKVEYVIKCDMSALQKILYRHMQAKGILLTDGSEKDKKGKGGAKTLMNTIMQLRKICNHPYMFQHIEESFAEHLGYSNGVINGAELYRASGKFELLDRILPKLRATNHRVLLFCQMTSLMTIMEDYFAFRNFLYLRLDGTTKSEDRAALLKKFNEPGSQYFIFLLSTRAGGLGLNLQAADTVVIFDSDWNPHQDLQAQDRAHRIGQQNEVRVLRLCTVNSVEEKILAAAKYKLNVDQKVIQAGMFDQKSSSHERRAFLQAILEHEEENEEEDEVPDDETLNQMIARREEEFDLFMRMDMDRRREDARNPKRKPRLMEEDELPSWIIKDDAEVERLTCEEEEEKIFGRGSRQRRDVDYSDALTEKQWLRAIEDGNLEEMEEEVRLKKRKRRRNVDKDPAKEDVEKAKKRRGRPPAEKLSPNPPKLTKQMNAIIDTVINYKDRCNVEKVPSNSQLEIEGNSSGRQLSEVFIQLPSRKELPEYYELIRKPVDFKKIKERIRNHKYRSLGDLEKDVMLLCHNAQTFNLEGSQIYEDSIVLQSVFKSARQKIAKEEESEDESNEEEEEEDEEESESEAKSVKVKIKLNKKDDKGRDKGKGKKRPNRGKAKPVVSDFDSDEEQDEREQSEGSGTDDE
- assay-notes: SMARCA2 HiBiT degradation assay in HeLa cells
- Format: cell-based
- protocol-conditions: 18 hours incubation, read-out: Dmax % (SM2-HeLa), maximum SMARCA2 degradation within the concentrations tested
The reader will find reported Dmax values listed item by item below.
measurement-label: Dmax

1) Cc1ncsc1-c1ccc([C@H](C)NC(=O)[C@@H]2C[C@@H](O)CN2C(=O)[C@@H](c2cc(OCCN3CCC(CN4CCCC5(CNc6nnc(-c7ccccc7O)cc6N5)C4)CC3)no2)C(C)C)cc1 (stereo partly drawn)    > 75%
2) Cc1ncsc1-c1ccc([C@H](C)NC(=O)[C@@H]2C[C@@H](O)CN2C(=O)[C@@H](c2cc(OCCN3CCC(CN4CCC5(CC4)CNc4nnc(-c6ccccc6O)cc45)CC3)no2)C(C)C)cc1    50 to 75%
3) Cc1ncsc1-c1ccc([C@H](C)NC(=O)[C@@H]2C[C@@H](O)CN2C(=O)[C@@H](c2cc(OCCN3CCC(CN4CCC5(CC4)CNc4nnc(-c6ccccc6O)cc4N5)CC3)no2)C(C)C)cc1    > 75%
